# pIC50 per record follows
# measuredOn: PP1α (PP1CA) (Oryctolagus cuniculus)
# Sequence (P62139 whole entry): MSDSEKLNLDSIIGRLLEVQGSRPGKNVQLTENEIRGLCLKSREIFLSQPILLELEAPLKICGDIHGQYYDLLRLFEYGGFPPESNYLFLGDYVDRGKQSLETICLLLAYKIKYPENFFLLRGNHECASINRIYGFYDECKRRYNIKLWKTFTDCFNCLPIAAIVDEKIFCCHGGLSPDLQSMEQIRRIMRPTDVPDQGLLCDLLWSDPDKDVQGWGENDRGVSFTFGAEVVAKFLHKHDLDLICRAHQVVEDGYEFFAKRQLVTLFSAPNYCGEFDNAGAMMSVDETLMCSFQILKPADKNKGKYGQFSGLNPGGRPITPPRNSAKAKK
pIC50: −log10 of the molar value.

pIC50 measured on `COc1ccc(-c2[nH]c(=O)c3cc(OC)ccc3c2NCCOCCO)cc1` = < 4.30

Sample `COc1ccc(-c2cc3ccc(OC)cc3c(=O)n2N)cc1` ; pIC50 observed: < 4.30

Reported pIC50 of `COc1ccc(-c2[nH]c(=O)c3cc(OC)ccc3c2Cl)cc1` : < 4.30

Others:
Per the record, `COc1ccc(-c2[nH]c(=O)c3cc(OC)ccc3c2[N+](=O)[O-])cc1` has pIC50 of ≥ 5.05

// sample `C#CCOc1nc(-c2ccc(OC)cc2)c([N+](=O)[O-])c2ccc(OC)cc12` , its pIC50 was ≤ 4.30

* * *

# melting point listing for each entry below

Input C#Cc1c(-c2ccc(OC)cc2)nc(OC)c2cc(OC)ccc12 [Compound 38] . Output melting point: 209 to 210 °C

So for COc1ccc(-c2nc(OC)c3cc(OC)ccc3c2[N+](=O)[O-])cc1 [Compound 19] , the logged melting point turned out to be 176 to 178 °C

melting point for COc1ccc(-c2nc(NCc3ccccc3)c3cc(OC)ccc3c2[N+](=O)[O-])cc1 [Compound 22] is 199 to 201 °C

* * *

Each item that follows carries a reported melting point.

Field: example entries. Status: answers known.
The molecule listed as COc1ccc(-c2nc(OC)c3cc(OC)ccc3c2Br)cc1 [Compound 27] shows melting point equal to 138 to 140 °C

Data point: COc1ccc(-c2[nH]c(=O)c3cc(OC)ccc3c2I)cc1 [Compound 16] ; melting point = 216 to 218 °C

What the record says about COc1ccc(-c2[nH]c(=O)c3cc(OC)ccc3c2Br)cc1 [Compound 15] : melting point is 240 to 242 °C

melting point measured on COc1ccc(-c2nc(SCc3ccccc3)c3cc(OC)ccc3c2[N+](=O)[O-])cc1 [Compound 21] = 148 to 150 °C

The molecule identified as COC(=O)c1nnn(-c2c(-c3ccc(OC)cc3)[nH]c(=O)c3cc(OC)ccc23)c1C(=O)OC [Compound 48] registered its melting point at 220 °C

New cases:
# melting point of COc1ccc(-c2[nH]c(=O)c3cc(OC)ccc3c2N2CCCCC2)cc1 [Compound 40] = 206 °C

// COc1ccc2c([N+](=O)[O-])c(-c3ccc(Br)cc3)[nH]c(=O)c2c1 [Compound 34] : melting point value = 222 to 224 °C

Recorded result, COc1ccc(-c2cc3ccc(OC)cc3c(S(=O)(=O)O)n2)cc1 [Compound 13] , melting point: 226 to 228 °C

Looking up COc1ccc(-c2cc3ccc(OC)cc3c(=S)[nH]2)cc1 [Compound 12] , I see its melting point listed as 188 to 190 °C

* * *

Parameter: melting point. Scope: all listed entries.

Some entries whose results are on file:
Quick note, melting point for COc1ccc2cc(-c3ccc(OCc4ccccc4)cc3)[nH]c(=O)c2c1 [Compound 44] landed at > 260 °C

The recorded melting point for COc1ccc2cc(-c3ccc(C#C[Si](C)(C)C)cc3)[nH]c(=O)c2c1 [Compound 33] is 133 to 135 °C

melting point reading for COc1ccc(-c2[nH]c(=O)c3cc(OC)ccc3c2N2CCOCC2)cc1 [Compound 49] : 139 °C

The reported value for COc1ccc(-c2nc(OCC#N)c3cc(OC)ccc3c2[N+](=O)[O-])cc1 [Compound 31] in terms of melting point is 192 to 194 °C

Consider the additional compound presented here.
The compound COc1ccc(-c2nc(Sc3ccccc3)c3cc(OC)ccc3c2[N+](=O)[O-])cc1 [Compound 20] showed melting point equal to 169 to 171 °C

* * *

# measuredOn: PP1α (PP1CA) (Oryctolagus cuniculus)
# Construct: purchased New England Biolabs P0754
# assayComment: Protein phosphatase test (PP1 activity, DiFMUP fluorescent substrate)
# Assay type: biochemical
# reportedConditions: PP1CA at 80 mU, fluorescent substrate (50 μM), molecules from 50 μM to 50 nM; read-out: PP1 Inhibition IC50
IC50 values for the compounds below.

// worked examples, IC50 included
Entry `COc1ccc2c([N+](=O)[O-])c(-c3ccc(C#C[Si](C)(C)C)cc3)[nH]c(=O)c2c1` ; IC50 = 10 to 24 µM

For record `COc1ccc2c([N+](=O)[O-])c(-c3ccc(OC(=O)OC(C)(C)C)cc3)[nH]c(=O)c2c1` the listed IC50 is 10 to 24 µM

Next:
Field IC50 (entry `COc1ccc(-c2c([N+](=O)[O-])c3ccc(OC)cc3c(=O)n2CCO)cc1` ) reads > 50 µM

Lab book: IC50 of `COc1ccc(-c2nc(OCC#N)c3cc(OC)ccc3c2[N+](=O)[O-])cc1` noted as > 50 µM

IC50 measured on `O=c1[nH]c(-c2ccc(O)cc2)cc2ccc(O)cc12` = > 50 µM

Lab note: measured IC50 of `COc1ccc(-c2[nH]c(=O)c3cc(OC)ccc3c2-c2ccc(OC)cc2)cc1` was > 50 µM

compound `COc1ccc2c([N+](=O)[O-])c(-c3ccc(C#CC(C)(C)O)cc3)[nH]c(=O)c2c1` , IC50 observed: 25 to 50 µM

Notebook: `COc1ccc(-c2[nH]c(=O)c3ccccc3c2[N+](=O)[O-])cc1` , IC50 read as > 50 µM

`COc1ccc(-c2nc(Cl)c3cc(OC)ccc3c2[N+](=O)[O-])cc1` yielded IC50 of > 50 µM

The reported IC50 of the compound `COc1ccc2cc(-c3ccc(Br)cc3)[nH]c(=O)c2c1` was 10 to 24 µM

The compound identified as `COc1ccc(-c2cc3ccc(OC)cc3c(=O)n2C)cc1` registered its IC50 at ≥ 50 µM

* * *

# Tested on: HeLa cells
# assayComment: Indirect immunofluorescence: effect on HeLa cells (mitotic arrest, microtubule depolymerization)
# Type: cell-based, human
# Parameters: key: —: −: no activity on the cells at 25 μM (if there is an effect at high concentrations, this is specified in the table).; *: weak activity (MA and/or slight depolymerization of the MTs and/or slight inhibition of proliferation),; **: average activity (MA and/or moderate depolymerization of the MTs and/or moderate inhibition of proliferation),; ***: strong activity (MA and/or pronounced depolymerization of the MTs and/or pronounced inhibition of proliferation),; ****: very strong activity (MA and/or very pronounced depolymerization of the MTs and/or strong inhibition of proliferation)
# reportedConditions: 100 μM, 24 hours
measuredAttribute: Effect on Hela at 100 μM

Reported Effect on Hela at 100 μM for `O=c1[nH]c(-c2ccc(O)cc2)c(Cl)c2ccc(O)cc12` was *

Value of measured Effect on Hela at 100 μM for the entry `COc1ccc(-c2cc3ccc(OC)cc3c(=S)[nH]2)cc1` : *

// Effect on Hela at 100 μM lookup, molecule = `COc1ccc(-c2nc(OC)c3cc(OC)ccc3c2[N+](=O)[O-])cc1` , result: **

Value of measured Effect on Hela at 100 μM for the entry `COc1ccc(-c2cc3ccc(OC)cc3c(S(=O)(=O)O)n2)cc1` : *

* * *

Reported melting point is given for each of the following compounds.

In plain terms, `COc1ccc(-c2[nH]c(=O)c3cc(OC)ccc3c2C=O)cc1` has a documented melting point of 232 °C

`COc1ccc2cc(-c3ccc(Br)cc3)[nH]c(=O)c2c1` yielded melting point of > 250 °C

More entries:
Sure, the documented melting point for `COc1ccc2c([N+](=O)[O-])c(-c3ccc(OCc4ccccc4)cc3)[nH]c(=O)c2c1` is 252 to 254 °C

* * *

The reader will find reported melting point values listed item by item below.

// below: answered compounds
Lab note: COc1ccc2c([N+](=O)[O-])c(-c3ccc(C#C[Si](C)(C)C)cc3)[nH]c(=O)c2c1 [Compound 35] gave melting point of 178 to 180 °C

Consider COc1ccc(-c2[nH]c(=O)c3cc(OC)ccc3c2NC=O)cc1 [Compound 24] . Its measured melting point is > 270 °C

According to the records, this compound C#Cc1ccc(-c2[nH]c(=O)c3cc(OC)ccc3c2[N+](=O)[O-])cc1 [Compound 36] displays melting point of 246 to 248 °C

Reported melting point of C#CCOc1nc(-c2ccc(OC)cc2)c([N+](=O)[O-])c2ccc(OC)cc12 [Compound 29] : 177 to 179 °C

// melting point lookup, compound = COc1ccc(-c2nc(Cl)c3cc(OC)ccc3c2Br)cc1 [Compound 26] , result: 164 to 166 °C

Please find the next compound below.
Input COc1ccc(-c2[nH]c(=O)c3cc(OC)ccc3c2N(C)C)cc1 [Compound 23] . Output melting point: 183 to 185 °C
